Where do the numbers come from? From the supplement of paper PMC10567573.

B1: FBF1 (parent)
chain: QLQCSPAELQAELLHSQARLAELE

- Variants of: B1
- Experiment Summary: protein stability index of a GFP-peptide fusion (GPS, HEK-293T) (PSI 1-6); higher = more stable;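 further: lentivirally expressed fusions sorted by FACS into six bins by GFP to DsRed ratio, PSI derived from sequencing read proportions per bin multiplied by bin number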
- Condition Notes: c terminus: a fixed tail appended
Respond with label 1 for protein stability index values of 3 and above, label 0 for values below.

Example entries begin here.
{"columns": ["Var", "Qualitative Label"],
 "data": [
  ["A7Q", "label 1"],
  ["E8V", "label 0"],
  ["A18M", "label 0"],
  ["Q1D", "label 1"],
  ["R19C", "label 0"],
  ["Q3I", "label 0"]
]}

I'd appreciate it if you could say whether `L20I` has protein stability index at least equal to 3.
label 1
